- experimental_system: T1, human PTH/PTHrP receptor (PTH1R) (human, UniProt Q03431 27-593)
- T1 construct: whole, on cells; HKrk-B7 cells about 10^6 receptors/cell; SaOS-2 about 30,000 receptors/cell; also called hPTH-1 receptor; PTH-1 receptor
- T1 sequence (looked up): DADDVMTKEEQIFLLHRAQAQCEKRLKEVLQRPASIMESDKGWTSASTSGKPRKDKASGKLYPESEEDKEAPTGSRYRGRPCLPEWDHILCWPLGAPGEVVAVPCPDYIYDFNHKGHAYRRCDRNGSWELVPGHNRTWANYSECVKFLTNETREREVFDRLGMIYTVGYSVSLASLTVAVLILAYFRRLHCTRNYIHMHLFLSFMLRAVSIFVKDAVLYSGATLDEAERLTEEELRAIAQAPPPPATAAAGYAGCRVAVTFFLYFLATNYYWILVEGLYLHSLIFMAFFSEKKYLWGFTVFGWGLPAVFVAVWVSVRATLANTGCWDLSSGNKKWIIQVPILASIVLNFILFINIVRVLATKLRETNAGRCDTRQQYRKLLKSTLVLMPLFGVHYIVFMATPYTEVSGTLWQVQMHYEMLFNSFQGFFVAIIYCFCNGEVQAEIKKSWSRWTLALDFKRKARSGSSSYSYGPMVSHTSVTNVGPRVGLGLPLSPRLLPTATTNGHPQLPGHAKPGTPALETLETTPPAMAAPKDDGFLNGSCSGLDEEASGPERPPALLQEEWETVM
- experiment_summary: radioreceptor competition on HKrk-B7 cells; tracer 125I-rat [Nle8,21,Tyr34]PTH(1-34)amide
Where no end group is shown, it is not given here.
The following binders are shown together with reported IC50 values.
measurement_type: IC50

binder | measurement_type | value
ALADDAAFRERARLLAALERRHWLNSYMHKLLVLDAP (not fully specified (C-terminus)) [TIP(3-39)] | IC50 | 96 nM
AFRERARLLAALERRHWLNSYMHKLLVLDAP (not fully specified (C-terminus), also called human TIP-(9-39)) [TIP(9-39)] | IC50 | 39 nM
H-AVSEHQLLHDKGKSIQDLRRRHWLNSYMHKLLVLDAP-NH2 (also called PTHrP/TIP chimera) [PTHrP(1-20)/TIP(23-39)] | IC50 | 31 nM

Recorded values, source patent US20040176285A1.
